Source listed as ChEMBL document CHEMBL3593184.

Answer each item with its documented solubility.
# Test Details: Aqueous solubility of the compound at room temperature by HPLC
# Format: physicochemical
# Test Settings: water

## Task Return reported solubility; argument: COc1c(-c2ccc(O)c(O)c2)oc2cc(O)cc(O)c2c1=O
## Result > 50 mM

## Task Now consider CCN(CC)CCOc1cc(O)c2c(=O)c(OC)c(-c3cc(O)c(O)c(O)c3)oc2c1.Cl .
## Result > 50 mM

## Task Now consider COc1c(-c2ccc(O)c(O)c2)oc2cc(OCCN3CCCCC3)cc(O)c2c1=O.Cl .
## Result > 50 mM

---

# Test Details: Antioxidant activity assessed as superoxide anion radical scavenging activity after 20 mins by xanthine/xanthine oxidase method
# Format: physicochemical
Answer each item with its documented pIC50.
Just the number, please; pIC50 means minus log10 of the concentration in mol/L.

## Task Return reported pIC50; argument: COc1c(-c2ccc(O)c(O)c2)oc2cc(O)cc(OCCN3CCOCC3)c2c1=O
## Result 4.95

## Task Now consider CCN(CC)CCOc1cc(O)c2c(=O)c(OC)c(-c3ccc(O)c(O)c3)oc2c1 .
## Result 5.09

## Task Now consider COc1c(-c2ccc(O)c(O)c2)oc2cc(OCCN3CCOCC3)cc(O)c2c1=O .
## Result 5.13

## Task Now consider COc1c(-c2ccc(O)c(O)c2)oc2cc(OCCN3CCCCC3)cc(O)c2c1=O.Cl .
## Result 5.09

## Task Now consider COc1c(-c2ccc(O)c(O)c2)oc2cc(O)cc(OCCN3CCCCC3)c2c1=O .
## Result 5.24

## Task Now consider COc1c(-c2ccc(O)c(O)c2)oc2cc(O)cc(OCCN3CCCC3)c2c1=O .
## Result 5.34
